These data points were gathered from ChEMBL document CHEMBL1140929.

- Test system: Stomach
- assay_procedure: Biodistribution in NMRI mouse stomach at 3.7 MBq/mL, iv after 60 mins by gamma counting
- Assay type: ADME, organism-based
- run_conditions: in vivo, 1 h
reported_endpoint: Drug uptake (%ID)

INSERT INTO assay_data (smiles_notation, reported_endpoint, value_observed) VALUES
  ('Cc1ccc2nc(-c3ccc([18F])cc3)sc2c1', 'Drug uptake', 1.1);

A: [11CH3]Nc1ccc(-c2nc3ccc(O)cc3s2)cc1
B: Oc1ccc2nc(-c3ccc([18F])cc3)sc2c1
C: COc1ccc2nc(-c3ccc([18F])cc3)sc2c1
**Query** Parameters: sort_field (Drug uptake), sort_dir (desc). Use the labels to give the requested order.
**Result** C, B, A
(C: 1.2 %ID, B: 0.5 %ID, A: 0.3 %ID)
